Each recorded value in this set is attributed to the Human Domainome abundance scans (Beltran et al. 2025).

Readings of abundance fitness for the listed variants
B1: Membrane-associated guanylate kinase, WW and PDZ domain-containing protein 2, residues 601 to 682; numbered along this chain, Q86UL8 (parent)
chain: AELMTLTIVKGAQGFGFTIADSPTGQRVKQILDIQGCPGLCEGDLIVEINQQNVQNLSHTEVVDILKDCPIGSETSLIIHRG

Variants of: B1
Assay: abundance fitness (aPCA) (normalised: wild type 0, dead -1); higher = more abundant; growth selection in yeast, the domain comes from the species named
Conditions: Homo sapiens
Test Readout: abundance fitness

{"Mutation Id": "I31W", "Test Readout": "abundance fitness", "Meas Value": -0.665}
{"Mutation Id": "C69T", "Test Readout": "abundance fitness", "Meas Value": 0.085}
{"Mutation Id": "K67S", "Test Readout": "abundance fitness", "Meas Value": 0.004}
{"Mutation Id": "E48L", "Test Readout": "abundance fitness", "Meas Value": -0.114}
{"Mutation Id": "Q51V", "Test Readout": "abundance fitness", "Meas Value": -0.088}
{"Mutation Id": "L57G", "Test Readout": "abundance fitness", "Meas Value": -0.152}
{"Mutation Id": "V47C", "Test Readout": "abundance fitness", "Meas Value": -0.066}
{"Mutation Id": "I34H", "Test Readout": "abundance fitness", "Meas Value": -0.153}
{"Mutation Id": "H80A", "Test Readout": "abundance fitness", "Meas Value": -0.049}
{"Mutation Id": "P70G", "Test Readout": "abundance fitness", "Meas Value": -0.185}
{"Mutation Id": "Q30C", "Test Readout": "abundance fitness", "Meas Value": -0.205}
{"Mutation Id": "D68I", "Test Readout": "abundance fitness", "Meas Value": -0.271}
{"Mutation Id": "R81P", "Test Readout": "abundance fitness", "Meas Value": 0.039}
{"Mutation Id": "A20E", "Test Readout": "abundance fitness", "Meas Value": -0.147}
{"Mutation Id": "E74G", "Test Readout": "abundance fitness", "Meas Value": -0.153}
{"Mutation Id": "S73N", "Test Readout": "abundance fitness", "Meas Value": -0.359}
